Test: Pharmacokinetics study of ML290 via oral administration in hRXFP1/hRXFP1 mice
Format: in vivo
Conditions: mouse, 30 mg/kg oral, serum, read-out: t½ in serum (converted)
Metric: half-life (h)
Numeric only. Scale: h

Give the reported value of half-life for this record: CC(C)Oc1ccccc1C(=O)Nc1ccccc1C(=O)Nc1cccc(S(=O)(=O)C(F)(F)F)c1
11

Hey, just so you know, these numbers are from patent US11235033B1.
